Measured PBMC binding (%), listed per entry.
# SYSTEM: TCR Vβ17 on T cells of PBMCs
# Sequence (A0A075B6N1 22-114): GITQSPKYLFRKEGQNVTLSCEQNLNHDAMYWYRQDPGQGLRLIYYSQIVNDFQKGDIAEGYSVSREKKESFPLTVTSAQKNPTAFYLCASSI
# ASSAY_COMMENT: flow cytometry on PBMCs, percent of cells stained
Just the number in %, nothing appended.

BINDER	PBMC binding (%)
20A9A9 (antibody, V domains shown) VH: EVQLQESGPGLVQPSQSLSITCTVSGFSLTSYGVHWVRQSPGKGLEWLGIIWSAGGTDYNAAFISRLSISKDNSKSQIFFKLNSLHADDTAIYFCARGSFYDYGRLDYWGQGTTLTVSS VL: DIVMTQSHRFMSTSVGDRVSITCKASQDVSTAVAWYQQKPGQSPKLLIYSSSYRYTGVPDRFTGSGSGTDFTFTISSVQAEDLAVYYCQQHYGTPYTFGGGTKLEIQ	2.7

State the recorded PBMC binding (%) for this entry: 28C9A5 (antibody, IgG2b, V domains shown) VH: EVQLQESGAELVRPGTSVKMSCKASGYTFTHYWIDWTKQRPGHGLEWIGNIYPGGGYTNYNENFKGKATLTADKSSSTVFMQFSSLTSDDSAIYYCTRKGYYYGSDWYFDVWGTGTTVTVSS VL: QIVLSQSPAIMSASPGEKVTMTCSASSSVSYMHWYQQKSGTSPKRWIYDTSKLASGVPARFSGSGSGTSYSLTISSMEAEDAATYYCQQWSSNPYTFGGGTKLEIK
3.27
